test system: Staphylococcus sp.; assay: in vitro antibacterial evaluation, MIC by broth dilution; type: cell-based; details: strain GC 4546; broth dilution, 18 hours at 35° C.
Consider the following compounds; for each one, report its MIC Staphylococcus haemolyticus (GC 4546).

# value lookup — system Staphylococcus sp., readout MIC Staphylococcus haemolyticus (GC 4546), item CC(c1ccccc1)C1NC(=O)CNC(=O)C(CO)NC(=O)C(C(O)C2CNC(=N)N2C2OC(CO)C(O)C(O)C2O)NC(=O)C(C(O)C2CNC(=N)N2)NC(=O)C(Cc2ccc(OC3OC(CO)C(OC4OC5COC(c6cccc(OCc7ccc([N+](=O)[O-])cc7)c6)OC5C(O)C4O)C(O)C3O)cc2)NC1=O (stereo not drawn) [Example 182]
>64 µg/mL

# value lookup — system Staphylococcus sp., readout MIC Staphylococcus haemolyticus (GC 4546), item CCC(=O)Nc1cc(CC2NC(=O)C(C(C)c3ccccc3)NC(=O)CNC(=O)C(CO)NC(=O)C(C(O)C3CNC(=N)N3C3OC(CO)C(O)C(O)C3O)NC(=O)C(C(O)C3CNC(=N)N3)NC2=O)ccc1O (stereo not drawn) [Example 14]
>128 µg/mL

# value lookup — system Staphylococcus sp., readout MIC Staphylococcus haemolyticus (GC 4546), item CC(c1ccccc1)C1NC(=O)CNC(=O)C(CO)NC(=O)C(C(O)C2CNC(=N)N2C2OC(CO)C(O)C(O)C2O)NC(=O)C(C(O)C2CNC(=N)N2)NC(=O)C(Cc2ccc3oc(=O)[nH]c3c2)NC1=O (stereo not drawn) [Example 22]
>128 µg/mL
